assay: Dissociation constant, pKa of the compound; assay type: physicochemical
measurement.name: pKa

{"item.smiles": "Cn1cc(-c2ccc(CNc3cc(-c4cnc5cc(OCCCN6CCCC6)ccn45)ncn3)cc2)cn1", "pKa": 9.7}
{"item.smiles": "Cn1cc(-c2ccc(CNc3cc(-c4cnc5cc(OCCCN6CCC(C)(F)CC6)ccn45)ncn3)cc2)cn1", "pKa": 8.3}
{"item.smiles": "CN1CC(COc2ccn3c(-c4cc(NCc5ccc(-c6cnn(C)c6)cc5)ncn4)cnc3c2)C1", "pKa": 9.5}
{"item.smiles": "Cn1cc(-c2ccc(CNc3cc(-c4cnc5cc(OCCN6CCC(C)(C#N)CC6)ccn45)ncn3)cc2)cn1", "pKa": 6.9}
{"item.smiles": "Cc1nc(-c2ccc(CNc3cc(-c4cnc5cc(OCCN6CCC(=O)N(C)CC6)ccn45)ncn3)cc2)co1", "pKa": 6.3}
{"item.smiles": "Cn1cc(-c2ccc(CNc3cc(-c4cnc5cc(OCCCNC6COC6)ccn45)ncn3)cc2)cn1", "pKa": 7.3}

(a) Cn1cc(-c2ccc(CNc3cc(-c4cnc5cc(OCCN6CCn7nncc7C6)ccn45)ncn3)cc2)cn1
(b) Cn1cc(-c2ccc(CNc3cc(-c4cnc5cc(OCCN6CCCC6)ccn45)ncn3)cc2)cn1
Param pair: a , b . Output: the one whose pKa is numerically greater. Give the label under which the chosen entry appears.
b
